log10(LC50): recorded values
# Tested on: Apolygus lucorum
# METHOD_NOTES: Insecticidal activity against third-instar Apolygus lucorum reared in asparagus bean pod assessed as mortality administered by dipping pods in compound solution measured after 48 hr at 25 degC
# Assay type: functional
The figures below represent log10 of LC50, where LC50 is stated in µg/mL.

// fetch log10(LC50) given entry O=[N+]([O-])/N=C1\NCCN1Cc1ccc(Cl)nc1
3.01

In one line, give reported log10(LC50) of the entry CC1(C)C(/C=C(\Cl)C(F)(F)F)C1C(=O)O[C@@H](C#N)c1cccc(Oc2ccccc2)c1 (stereo partly drawn) .
1.45

Provide log10(LC50) value for the following compound: CCCCN(CCCC)SN(C)C(=O)Oc1cccc2c1OC(C)(C)C2
2.30

Read the entry C/C(=N\C#N)N(C)Cc1ccc(Cl)nc1 and write its reported log10(LC50).
2.62

Name the recorded log10(LC50) of the item N#Cc1nn(-c2c(Cl)cc(C(F)(F)F)cc2Cl)c(N)c1[S+]([O-])C(F)(F)F (stereo not drawn) in your answer.
-0.14

More entries:
State, in one line, measured log10(LC50) of CCOP(=S)(OCC)O/N=C(\C#N)c1ccccc1
2.38

Provide log10(LC50) value for the following compound: CC1(C)[C@H](C=C(Cl)Cl)[C@H]1C(=O)O[C@@H](C#N)c1cccc(Oc2ccccc2)c1
1.07

Answer with the recorded log10(LC50) for the compound listed here: CNC(=O)ON=C(C)SC
2.95

* * *

# Test system: Apolygus lucorum
# METHOD_NOTES: Ratio of LC50 for third-instar Apolygus lucorum reared in asparagus bean pod at 15 degC to LC50 for third-instar Apolygus lucorum reared in asparagus bean pod at 30 degC
# Format: functional
MEASURED_ENDPOINT: RatioLC50
// no unit, no text: just the number

# assay system Apolygus lucorum: give RatioLC50 of C/C(=N\C#N)N(C)Cc1ccc(Cl)nc1
6.11

Report value: RatioLC50, system: Apolygus lucorum, compound: O=[N+]([O-])/N=C1\NCCN1Cc1ccc(Cl)nc1
13.94

Report value only: RatioLC50, Apolygus lucorum, N#Cc1nn(-c2c(Cl)cc(C(F)(F)F)cc2Cl)c(N)c1[S+]([O-])C(F)(F)F (stereo not given)
1.03

Give RatioLC50 only, for CCCCN(CCCC)SN(C)C(=O)Oc1cccc2c1OC(C)(C)C2 , using Apolygus lucorum data.
1.12

State RatioLC50 (Apolygus lucorum) of CCOP(=S)(OCC)O/N=C(\C#N)c1ccccc1 .
1.01
